# measurement-description: Corneal to plasma drug concentration after eye drop administration in rats
# Format: in vivo
# measurement-context: male, rat, plasma, topical; SD rats, eye drops 5 mg/mL, 1 h; read-out: Plasma concentration
test-readout: concentration at 1 h

INSERT INTO measurements (smiles_input, test_readout, reading) VALUES
  ('CC(C)(O)c1cc(F)c(-c2cnc(C(C)(C)O)c(N)c2)cc1N', 'concentration at 1 h', '172 nM');

* * *

# measurement-description: Pharmacokinetics in Beagle dogs, single intravenous injection
# Type: in vivo
# measurement-context: male, dog, plasma, 1 mg/kg single intravenous injection, read-out: Half-life T1/2 (converted)
test-readout: half-life (h)

INSERT INTO assay_data (molecule, test_readout, reading) VALUES
  ('CC(C)(O)c1cc(F)c(-c2cnc(C(C)(C)O)c(N)c2)cc1N [Compound represented by formula (I)]', 'half-life', 2.94);

* * *

# measurement-description: Corneal to plasma drug concentration after eye drop administration in rats
# Format: in vivo
# measurement-context: male, rat, cornea, topical; SD rats, eye drops 5 mg/mL, 1 h; read-out: Corneal concentration
test-readout: concentration at 1 h (nM)

INSERT INTO measurements (smiles_input, test_readout, unit_label, reading) VALUES
  ('CC(C)(O)c1cc(F)c(-c2cnc(C(C)(C)O)c(N)c2)cc1N', 'concentration at 1 h', 'nM', 2450);

* * *

# measured-target: CYP1A2 (Homo sapiens, UniProt P05177)
# Sequence (P05177 whole entry): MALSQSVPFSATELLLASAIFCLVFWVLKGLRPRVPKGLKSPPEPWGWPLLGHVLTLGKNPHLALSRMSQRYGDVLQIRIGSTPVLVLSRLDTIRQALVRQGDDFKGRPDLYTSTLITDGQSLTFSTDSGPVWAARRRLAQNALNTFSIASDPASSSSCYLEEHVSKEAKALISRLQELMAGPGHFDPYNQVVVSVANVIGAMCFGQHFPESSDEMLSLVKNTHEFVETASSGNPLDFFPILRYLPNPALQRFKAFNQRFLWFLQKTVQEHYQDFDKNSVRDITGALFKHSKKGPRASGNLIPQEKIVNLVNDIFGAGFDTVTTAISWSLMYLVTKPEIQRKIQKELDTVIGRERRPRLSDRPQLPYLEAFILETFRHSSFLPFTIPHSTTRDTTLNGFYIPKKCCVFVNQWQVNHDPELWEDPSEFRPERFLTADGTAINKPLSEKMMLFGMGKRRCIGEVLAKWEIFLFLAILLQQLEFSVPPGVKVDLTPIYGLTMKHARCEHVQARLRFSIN
pIC50: −log10 of the molar value.
test-readout: pIC50

INSERT INTO measurements (smiles_input, reading) VALUES
  ('CC(C)(O)c1cc(F)c(-c2cnc(C(C)(C)O)c(N)c2)cc1N', '< 4.30');

* * *

# measurement-description: Pharmacokinetics in cynomolgus monkeys, single intravenous injection
# Type: in vivo
# measurement-context: male, cynomolgus monkey, plasma, 1 mg/kg single intravenous injection, read-out: Area under the concentration-time curve AUC
# Protocol: Experimental objective: To study pharmacokinetics of the compound in cynomolgus monkeys Experimental material: Cynomolgus monkeys (male, 2.5-4 kg, greater than or equal to 2 years, Hainan Jingang) Pharmacokinetic characteristics of the compound were tested by intravenous injection in monkeys according to the standard protocol. In the experiment, the candidate compound was prepared as a clear solution, and was administrating to cynomolgus monkeys at 1 mg/kg by single intravenous injection. […]
test-readout: AUC (µM·h)

INSERT INTO assay_data (smiles_input, test_readout, unit_label, reading) VALUES
  ('CC(C)(O)c1cc(F)c(-c2cnc(C(C)(C)O)c(N)c2)cc1N', 'AUC', 'µM·h', 13);

* * *

# measurement-description: Corneal to plasma drug concentration after eye drop administration in rats
# Format: in vivo
# measurement-context: male, rat, plasma, topical; SD rats, eye drops 5 mg/mL, 4 h; read-out: Plasma concentration
# Description: Experimental objective: To study the ratio of corneal to plasma drug concentration after eye drop administration in rats Experimental material: Male SD rats, 200-300 g, 7-9 weeks old, Shanghai Lingchang Experimental processes: The candidate compound was prepared as a clear solution, and administrating to SD rats by eye drop administration. The vehicle for eye drops was 10% hydroxypropyl β-cyclodextrin aqueous solution, and the drug concentration in the eye drops was 5 mg/mL. […]
test-readout: concentration at 4 h (nM)

INSERT INTO results (compound, reading) VALUES
  ('CC(C)(O)c1cc(F)c(-c2cnc(C(C)(C)O)c(N)c2)cc1N [Compound represented by formula (I)]', 24.4);
